measured-on: ZFP SBS#309 (synthetic)
Sequence (chain, as listed by the source): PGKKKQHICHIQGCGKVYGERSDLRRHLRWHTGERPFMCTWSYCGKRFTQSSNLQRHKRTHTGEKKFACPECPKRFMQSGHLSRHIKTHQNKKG
assay-summary: EMSA
experimental-context: tags: MBP fusion
pKd: −log10 of the molar value.
recorded-endpoint: pKd

| binder | recorded-endpoint | meas-value |
| --- | --- | --- |
| GGAGATGCC (dsDNA) DNA 1: GGAGATGCC DNA 2: GGCATCTCC | pKd | 5.40 |
